src = ChEMBL document CHEMBL1144389

Could you please report measured inhibition for the items listed next?
System: cGMP-specific 3',5'-cyclic phosphodiesterase (Homo sapiens)
Test summary: Percentage inhibition of human phosphodiesterase 5 at 100 nM
Expressed in %, but write only the number.

Challenge: Find the recorded inhibition belonging to `CC(C)N1C(=O)c2nc(Cc3ccccc3)n(Cc3ccccc3)c2N2C[C@@H](Cc3ccccc3)N=C21` and report it.
Response given: 13

Challenge: Find the recorded inhibition belonging to `C=CCN1C(=O)c2nc(Cc3ccccc3)n(Cc3ccccc3)c2N2C[C@@H](Cc3ccccc3)N=C12` and report it.
Response given: 17

Challenge: Find the recorded inhibition belonging to `CON1C(=O)c2nc(Cc3ccccc3)n(Cc3ccccc3)c2N2C[C@@H](Cc3ccccc3)N=C12` and report it.
Response given: 17

Challenge: Find the recorded inhibition belonging to `CCCN1C(=O)c2[nH]c(Cc3ccccc3)nc2N2C[C@@H](Cc3ccccc3)N=C12` and report it.
Response given: 25

* * *

System: Phosphodiesterases; PDE5 & PDE6 (Homo sapiens) (UniProt O76074+Q13956+P18545+P35913+O43924+P16499+P51160)
Test summary: Relative binding to Phosphodiesterase 6 and Phosphodiesterase 5, ratio of IC50
Type: protein assay
Value type: Ratio

Challenge: Find the recorded Ratio belonging to `CCN1C(=O)c2nc(Cl)n(Cc3ccccc3)c2N2C[C@@H](Cc3ccccc3)N=C12` and report it.
Response given: 7.3

Challenge: Find the recorded Ratio belonging to `CCN1C(=O)c2[nH]c(Cc3ccccc3)nc2N2C[C@@H](C(C)C)N=C12` and report it.
Response given: 1

Challenge: Find the recorded Ratio belonging to `CCN1C(=O)c2nc(Br)n(Cc3ccccc3)c2N2C[C@@H](Cc3ccccc3)N=C12` and report it.
Response given: 4.5

Challenge: Find the recorded Ratio belonging to `CCN1C(=O)c2nc(C#Cc3ccccc3)n(Cc3ccc(O)cc3)c2N2C[C@@H](Cc3ccccc3)N=C12` and report it.
Response given: 23

Challenge: Find the recorded Ratio belonging to `CCN1C(=O)c2c(nc(I)n2Cc2ccc(O)cc2)N2C[C@@H](Cc3ccccc3)N=C12` and report it.
Response given: 93.9

Challenge: Find the recorded Ratio belonging to `CCN1C(=O)c2c(nc(C)n2Cc2ccc(O)cc2)N2C[C@@H](Cc3ccccc3)N=C12` and report it.
Response given: 40

Challenge: Find the recorded Ratio belonging to `CCN1C(=O)c2nc(C#Cc3ccccc3)n(Cc3ccccc3)c2N2C[C@@H](Cc3ccccc3)N=C12` and report it.
Response given: 15

Challenge: Find the recorded Ratio belonging to `CC[C@@H]1CN2C(=N1)N(CC)C(=O)c1[nH]c(Cc3ccccc3)nc12` and report it.
Response given: 2.4

Challenge: Find the recorded Ratio belonging to `CCN1C(=O)c2nc(Cc3ccccc3)n(Cc3ccc(OC)cc3)c2N2C[C@@H](Cc3ccccc3)N=C12` and report it.
Response given: 7.5

* * *

System: cGMP-dependent 3',5'-cyclic phosphodiesterase (Homo sapiens)
Sequence (O00408 whole entry): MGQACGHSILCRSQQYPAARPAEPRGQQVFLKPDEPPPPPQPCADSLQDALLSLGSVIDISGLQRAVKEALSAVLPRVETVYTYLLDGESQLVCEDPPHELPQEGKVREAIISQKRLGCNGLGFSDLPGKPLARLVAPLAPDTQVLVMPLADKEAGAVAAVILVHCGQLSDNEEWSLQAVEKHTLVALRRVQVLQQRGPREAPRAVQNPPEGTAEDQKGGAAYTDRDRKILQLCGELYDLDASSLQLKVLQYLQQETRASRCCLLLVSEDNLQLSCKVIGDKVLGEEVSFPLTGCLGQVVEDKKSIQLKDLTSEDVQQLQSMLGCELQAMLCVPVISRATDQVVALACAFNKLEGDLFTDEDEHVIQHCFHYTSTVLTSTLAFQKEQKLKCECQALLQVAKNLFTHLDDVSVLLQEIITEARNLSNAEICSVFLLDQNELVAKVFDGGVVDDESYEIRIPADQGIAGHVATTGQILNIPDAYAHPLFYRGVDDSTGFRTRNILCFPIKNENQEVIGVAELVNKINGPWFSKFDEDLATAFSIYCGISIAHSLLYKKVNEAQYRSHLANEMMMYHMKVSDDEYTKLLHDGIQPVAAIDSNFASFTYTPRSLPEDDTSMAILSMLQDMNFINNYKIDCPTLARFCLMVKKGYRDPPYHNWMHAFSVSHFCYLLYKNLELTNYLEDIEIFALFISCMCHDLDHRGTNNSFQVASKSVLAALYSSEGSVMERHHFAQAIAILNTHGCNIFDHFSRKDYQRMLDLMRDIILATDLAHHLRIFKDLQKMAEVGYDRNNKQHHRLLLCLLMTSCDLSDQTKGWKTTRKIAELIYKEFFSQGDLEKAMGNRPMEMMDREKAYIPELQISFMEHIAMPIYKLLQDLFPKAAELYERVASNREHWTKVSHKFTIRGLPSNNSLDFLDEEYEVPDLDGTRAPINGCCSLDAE
Test summary: Inhibition of human phosphodiesterase 2
pIC50: −log10 of the molar value.
Value type: pIC50

Challenge: Find the recorded pIC50 belonging to `CCN1C(=O)c2c(nc(Br)n2Cc2ccc(O)cc2)N2C[C@@H](Cc3ccccc3)N=C12` and report it.
Response given: < 5.00

* * *

System: cGMP-specific 3',5'-cyclic phosphodiesterase (Homo sapiens, UniProt O76074)
Test summary: Percentage inhibition of human phosphodiesterase 5 at 100 nM
Value type: inhibition (%)
Expressed in %, but write only the number.

Challenge: Find the recorded inhibition belonging to `O=C1c2[nH]c(Cc3ccccc3)nc2N2C[C@@H](Cc3ccccc3)N=C2N1CC(F)(F)F` and report it.
Response given: 34

Challenge: Find the recorded inhibition belonging to `O=C1c2nc(Cc3ccccc3)[nH]c2N2C[C@@H](Cc3ccccc3)N=C2N1C1CC1` and report it.
Response given: 21

Challenge: Find the recorded inhibition belonging to `Oc1nc2n(c3nc(Cc4ccccc4)nc1-3)C[C@@H](Cc1ccccc1)N2` and report it.
Response given: 22

Challenge: Find the recorded inhibition belonging to `O=C1c2nc(Cc3ccccc3)n(Cc3ccccc3)c2N2C[C@@H](Cc3ccccc3)N=C2N1CC(F)(F)F` and report it.
Response given: 7

Challenge: Find the recorded inhibition belonging to `CCN1C(=O)c2c(nc(I)n2Cc2ccccc2)N2C[C@@H](Cc3ccccc3)N=C12` and report it.
Response given: 32
